Entry source: ChEMBL document CHEMBL1201862

# System: HCC 2998
# protocol description: NCI tumour cell line growth inhibition, 48 h
Activity calls are given as the source filed them. No stated cut-off is given here; in the data, active = GI50 up to about 1.1 µM and inactive = higher. Where a SMILES comes first, the peptide text is derived from it. [ ]: non-standard residue; d: D form. The star is where a group is joined. ξ: configuration not given here. ξPhe(4-NO2) = NC(Cc1ccc([N+](=O)[O-])cc1)C(=O)O; Boc = CC(C)(C)OC(=O)*; OBn = c1ccc(CO*)cc1
Measured GI50 accompanies every entry in the list below.
assay endpoint: GI50

[
  {
    "molecule": "C[n+]1c(-c2ccc(/C=N/Nc3ccnc(N/N=C/c4ccc(-c5cn6ccsc6[n+]5C)cc4)n3)cc2)cn2ccsc21",
    "target": "HCC 2998",
    "test value": "31.6 µM (inactive)"
  },
  {
    "molecule": "O=C(CCl)Nc1cc(Cl)c(Cl)cc1Cl",
    "target": "HCC 2998",
    "test value": "4.84 µM (inactive)"
  },
  {
    "molecule": "CC1=CCC[C@H]2[C@](C)(CC3=CC(=O)C(Sc4ccccc4)=CC3=O)[C@@H](C)CC[C@]12C",
    "target": "HCC 2998",
    "test value": "20.4 µM (inactive)"
  },
  {
    "molecule": "N#Cc1c(-c2ccccc2)cc(-c2ccc(N)cc2)[nH]c1=O",
    "target": "HCC 2998",
    "test value": "> 100 µM (inactive)"
  },
  {
    "molecule": "COC(=O)c1c(C)cccc1C1CN=NC12Cc1ccc(C)c(C)c1C2=O (stereo not given)",
    "target": "HCC 2998",
    "test value": "23.5 µM (inactive)"
  },
  {
    "molecule": "COc1ccc2nc(N/N=C/C(C)=N/Nc3cc(C)c4cc(OC)ccc4n3)cc(C)c2c1",
    "target": "HCC 2998",
    "test value": "20.1 µM (inactive)"
  },
  {
    "molecule": "COC(=O)C12CCC(CC1=O)C2(C)C (stereo not given)",
    "target": "HCC 2998",
    "test value": "> 100 µM (inactive)"
  },
  {
    "molecule": "Oc1cc(-c2cccc(C(F)(F)F)c2)nc2cc3c(cc12)OCO3",
    "target": "HCC 2998",
    "test value": "3.44 µM (inactive)"
  },
  {
    "molecule": "Cc1ccc(-c2c(C#N)c(-c3ccccc3)n(NS(=O)(=O)c3ccc(C)cc3)c(=O)c2C#N)cc1",
    "target": "HCC 2998",
    "test value": "47.4 µM (inactive)"
  },
  {
    "molecule": "Cc1cccc(-c2cc(O)c3cccnc3n2)c1",
    "target": "HCC 2998",
    "test value": "1.98 µM (inactive)"
  },
  {
    "molecule": "O=[N+]([O-])c1ccc2c(c1)n1c(N3CCCC3)[n+]3ccccc3c1c1c3ccccn3c(N3CCCC3)[n+]21.[O-][Cl+3]([O-])([O-])[O-].[O-][Cl+3]([O-])([O-])[O-]",
    "target": "HCC 2998",
    "test value": "> 100 µM (inactive)"
  },
  {
    "molecule": "Cc1cc(N(CCOS(C)(=O)=O)CCOS(C)(=O)=O)ccc1C=O",
    "target": "HCC 2998",
    "test value": "4.65 µM (inactive)"
  },
  {
    "molecule": "Cc1cc(N(CCC#N)CCC#N)ccc1C(/N=N\\c1ccc(C(=O)O)cc1)=N\\NC(=O)c1cc(Cl)ccc1O",
    "target": "HCC 2998",
    "test value": "> 100 µM (inactive)"
  },
  {
    "molecule": "CNC(=O)OCc1c(COC(=O)NC)c(-c2ccc(-c3ccccc3)cc2)n(C)c1C",
    "target": "HCC 2998",
    "test value": "2.82 µM (inactive)"
  },
  {
    "molecule": "Cc1ccc2nc(CC(=O)c3ccc4ccccc4c3)c(O)nc2c1",
    "target": "HCC 2998",
    "test value": "> 100 µM (inactive)"
  },
  {
    "molecule": "C[C@H]1CC[C@@]2(OC1)O[C@H]1C[C@H]3[C@@H]4CC[C@@H]5C[C@@H](OC6OC(CO)C(O)C(O)C6OC6OC(CO)C(O)C(O)C6O)CC[C@]5(C)[C@H]4CC[C@]3(C)[C@H]1[C@@H]2C (stereo not given in full)",
    "target": "HCC 2998",
    "test value": "2.02 µM (inactive)"
  },
  {
    "molecule": "CCOC(=O)/C(C(=O)c1ccccc1)=C1\\N[C@H](C(=O)OCC)CS1",
    "target": "HCC 2998",
    "test value": "> 100 µM (inactive)"
  },
  {
    "molecule": "CC(C)(C)C(=O)O[C@@H]1COC2C(O)COC21 (stereo not given in full)",
    "target": "HCC 2998",
    "test value": "> 100 µM (inactive)"
  },
  {
    "molecule": "COC(=O)[C@H](CCSC)NC(=O)c1ccc(CNC(=O)/C=C/c2cccc(Oc3ccccc3)c2)cc1",
    "target": "HCC 2998",
    "test value": "28.5 µM (inactive)"
  },
  {
    "molecule": "CCCCCCCCOC(=O)C12Oc3ccc(-c4ccc5c(c4O)C(=O)C4=C(O)CC(C)C(O)C4(C(=O)OCCCCCCCC)O5)c(O)c3C(=O)C1=C(O)CC(C)C2O (stereo not given)",
    "target": "HCC 2998",
    "test value": "28.9 µM (inactive)"
  },
  {
    "molecule": "C=C1C(=O)O[C@@H]2C[C@]3(C)CC[C@]4(C)[C@H](CC[C@@H]5[C@@]6(C)CCC(=O)C(C)(C)[C@@H]6CC[C@]54C)[C@H]3[C@H]12 [OCHRACEOLIDE A]",
    "target": "HCC 2998",
    "test value": "19.2 µM (inactive)"
  },
  {
    "molecule": "CCn1c(=O)c2c3ccc(OC(C)=O)cc3[nH]c2c2ccc(OC(C)=O)cc21",
    "target": "HCC 2998",
    "test value": "23.7 µM (inactive)"
  },
  {
    "molecule": "CCOC(=O)NC(=O)c1cn(C2OC(COC(=O)CCCCCCCCC(=O)OCC3OC(n4cc(C(=O)NC(=O)OCC)c(=O)[nH]c4=O)C(O)C3O)C(O)C2O)c(=O)[nH]c1=O (stereo not given)",
    "target": "HCC 2998",
    "test value": "> 100 µM (inactive)"
  },
  {
    "molecule": "CC(C)(C)OC(=O)NC(Cc1ccc([N+](=O)[O-])cc1)C(=O)NCC(=O)OCc1ccccc1 (stereo not given) (Boc-[ξPhe(4-NO2)]-Gly-OBn)",
    "target": "HCC 2998",
    "test value": "19.6 µM (inactive)"
  },
  {
    "molecule": "CCOC(=O)C1=C(OC(OCC)C(CC)[Se]c2ccccc2)CCC1 (stereo not given)",
    "target": "HCC 2998",
    "test value": "15.2 µM (inactive)"
  },
  {
    "molecule": "COc1cc2c(cc1OC)C1=Cc3ccc(OC)c(OC)c3C(C#N)N1CC2 (stereo not given)",
    "target": "HCC 2998",
    "test value": "18.5 µM (inactive)"
  },
  {
    "molecule": "CSc1cc(Cl)c(C)cc1S(=O)(=O)NC(=O)NNc1ccc(Cl)cc1",
    "target": "HCC 2998",
    "test value": "36.2 µM (inactive)"
  },
  {
    "molecule": "CSc1nc(SC)c2cnn(CC3CO3)c2n1 (stereo not given)",
    "target": "HCC 2998",
    "test value": "17.4 µM (inactive)"
  },
  {
    "molecule": "N#CCCc1nc2ccc(Br)cc2c(=O)n1CCO",
    "target": "HCC 2998",
    "test value": "> 100 µM (inactive)"
  },
  {
    "molecule": "CCOC(=O)C(C)c1nc2ccc(C(F)(F)F)cc2[nH]c1=O (stereo not given)",
    "target": "HCC 2998",
    "test value": "65.2 µM (inactive)"
  },
  {
    "molecule": "COC(=O)CC1c2ccccc2N2C(=O)Cc3c([nH]c4ccccc34)C12 (stereo not given)",
    "target": "HCC 2998",
    "test value": "> 100 µM (inactive)"
  },
  {
    "molecule": "S=C1/C(=N/c2ccccc2)N(c2ccccc2)/C(=N\\c2cccc[n+]2Cc2ccccc2)N1c1ccccc1",
    "target": "HCC 2998",
    "test value": "13.9 µM (inactive)"
  },
  {
    "molecule": "COc1ccc(/C=C\\c2cc(OC)c(O[Si](C)(C)C(C)(C)C)c(OC)c2)cc1",
    "target": "HCC 2998",
    "test value": "26.1 µM (inactive)"
  },
  {
    "molecule": "COc1ccc(N2C(=O)C3c4[nH]c5ccc(F)cc5c4C4CCC(c5ccccc5)CC4C3C2=O)cc1 (stereo not given)",
    "target": "HCC 2998",
    "test value": "39.9 µM (inactive)"
  },
  {
    "molecule": "CSc1nc2c(c(N(C)C)n1)C(O)n1c(nc3ccccc31)S2 (stereo not given)",
    "target": "HCC 2998",
    "test value": "> 100 µM (inactive)"
  }
]
